system: SCC-9 cells (OSCC cells); assay: MTT cell viability assay, SCC-9; type: cell-based, human; settings: Homo sapiens, SCC-9; 72 h, MTT; read-out: IC50 SCC-9 oral cancer
pIC50: −log10 of the molar value.

{"columns": ["COMPOUND", "pIC50"],
 "data": [
  ["Cc1cccc(SC2C3=C(OC(C)(C)C2Sc2cccc(C)c2)C(=O)c2ccccc2C3=O)c1 (centres unmarked)", 4.82],
  ["COc1ccc(SC2C3=C(OC(C)(C)C2Sc2ccc(OC)cc2)C(=O)c2ccccc2C3=O)cc1 (centres unmarked)", 4.33],
  ["Cc1ccccc1SC1C2=C(OC(C)(C)C1Sc1ccccc1C)C(=O)c1ccccc1C2=O (centres unmarked)", 4.46],
  ["CC1(C)OC2=C(C(=O)c3ccccc3C2=O)C(Sc2ccc(Cl)cc2)C1Sc1ccc(Cl)cc1 (centres unmarked)", 4.48],
  ["Cc1ccc(SC2C3=C(OC(C)(C)C2Sc2ccc(C)cc2)C(=O)c2ccccc2C3=O)cc1 (centres unmarked)", 4.51],
  ["CC1(C)OC2=C(C(=O)c3ccccc3C2=O)C(Sc2ccc(O)cc2)C1Sc1ccc(O)cc1 (centres unmarked)", 4.76],
  ["CC1(C)OC2=C(C(=O)c3ccccc3C2=O)C(Sc2ccccc2)C1Sc1ccccc1 (centres unmarked)", 4.58],
  ["CC1(C)OC2=C(C(=O)c3ccccc3C2=O)C(Sc2ccc(F)cc2)C1Sc1ccc(F)cc1 (centres unmarked)", 4.45]
]}
